src = patent US10689377B2

target: KRas G12C (Homo sapiens, UniProt P01116, G12C); assay: Cellular inhibition of KRas G12C measured by Phospho-ERK in NCI-H358 cells; assay type: cell-based; conditions: pERK(Thr202/Tyr204) normalized with GAPDH, NCI-H358 cells, 3 hours; read-out: IC50
Sequence (P01116 1-188 isoform P01116-2 G12C): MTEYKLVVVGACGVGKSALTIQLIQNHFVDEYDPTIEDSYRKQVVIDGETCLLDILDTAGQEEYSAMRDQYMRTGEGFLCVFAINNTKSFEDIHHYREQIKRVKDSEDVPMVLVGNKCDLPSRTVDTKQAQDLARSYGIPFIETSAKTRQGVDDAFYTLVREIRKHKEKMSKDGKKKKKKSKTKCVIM
molecules and their reported IC50

>>> experimental_value("C=CC(=O)N1CCN(c2nc(OCCC(=O)N(C)C)nc3c2CCN(c2cccc4cccc(C)c24)C3)C[C@@H]1CC#N")
"0.1 to 1000 nM"
>>> experimental_value("C=CC(=O)N1CCN(c2nc(OC[C@@H]3CCCN3C)nc3c2CCN(c2cccc4ccc(Cl)cc24)C3)CC1CC#N (stereo partly shown) [Example 253]")
"0.1 to 1000 nM"
>>> experimental_value("C=C(C)C(=O)N1CCN(c2nc(OC[C@@H]3CCCN3C)nc3c2CCN(c2cccc4ccccc24)C3)CC1CC#N (stereo partly shown)")
"> 1000 nM"

Next molecule, please.
QUERY: Field request: IC50 | item: C=CC(=O)N1CCN(c2nc(OC[C@H]3CCCN3CCO)nc3c2CCN(c2cccc4ccccc24)C3)CC1CC#N (stereo partly shown)
RESULT: 0.1 to 1000 nM

* * *

target: KRas G12C (Homo sapiens, UniProt P01116, G12C); assay: Cellular inhibition of KRas G12C measured by Phospho-ERK in NCI-H358 cells; assay type: cell-based; conditions: pERK(Thr202/Tyr204) normalized with GAPDH, NCI-H358 cells, 3 hours; read-out: IC50
pIC50: −log10 of the molar value.
endpoint: pIC50

// known answers, use as guide
>>> experimental_value("C=CC(=O)N1CCN(c2nc(N3CCC(N(C)C)CC3)nc3c2CCN(c2cc(O)cc4ccccc24)C3)CC1")
"< 6.00"
>>> experimental_value("C=CC(=O)N1CCN(c2nc(OC[C@H]3C[C@H](F)CN3C)nc3c2CCN(c2cccc(F)c2C(F)(F)F)C3)CC1CC#N (stereo partly shown)")
"6.00 to 10.00"
>>> experimental_value("C=CC(=O)N1CCN(c2nc(OCCCN3CCN(C(C)=O)CC3)nc3c2CCN(c2cc(O)cc4ccccc24)C3)CC1")
"6.00 to 10.00"
>>> experimental_value("C=C(F)C(=O)N1CCN(c2nc(OC[C@@H]3CCCN3C)nc3c2CCN(c2cccc4cccc(Cl)c24)C3)[C@@H](C(F)F)C1")
"< 6.00"
>>> experimental_value("C=CC(=O)N1CCN(c2nc(OC[C@@H]3C[C@@H](OC)CN3C)nc3c2CCN(c2cccc4ccccc24)C3)CC1CC#N (stereo partly shown) [Example 381]")
"6.00 to 10.00"
>>> experimental_value("C=CC(=O)N1[C@H](C)CN(c2nc(OCCCN3CCOCC3)nc3c2CCN(c2cc(O)cc4ccccc24)C3)C[C@@H]1C")
"< 6.00"

QUERY: Observed pIC50 on KRas G12C (Homo sapiens, UniProt P01116, G12C) for `C=CC(=O)N1CCN(c2nc(OCCN3CCC(OC)CC3)nc3c2CCN(c2cc(O)cc4ccccc24)C3)CC1` , please.
RESULT: 6.00 to 10.00

* * *

Listed below: IC50 values for each entry.
Target: KRas G12C (Homo sapiens, UniProt P01116, G12C)
Assay: Cellular inhibition of KRas G12C measured by Phospho-ERK in NCI-H358 cells
Assay type: cell-based
Conditions: pERK(Thr202/Tyr204) normalized with GAPDH, NCI-H358 cells, 3 hours; read-out: IC50
Procedure: Cells were plated in poly-D-Lysine coated 96-well plates at a concentration of 50,000 cells/well and allowed to attach for 8-12 hours. Diluted compounds were then added at a final concentration of 0.5% DMSO. […] The amount Phospho-ERK was determined using an antibody specific for the phosphorylated form of ERK and compared to the amount of GAPDH. […] The pERK(Thr202/Tyr204) signal was normalized with the GAPDH signal and percent of DMSO control values were calculated. […]

>>> experimental_value("C=CC(=O)N1CCN(c2nc(OC[C@H]3CCCN3C)nc3c2CCN(c2cccc4ccccc24)C3)C[C@@H]1CC#N [Example 441]")
"0.0001 to 1 µM"
>>> experimental_value("C=CC(=O)N1CCN(c2nc(OCCCN3CCOCC3)nc3c2CCN(c2cc(O)cc4ccccc24)C3=O)CC1")
"> 1 µM"
>>> experimental_value("C=CC(=O)N1CCN(c2nc(OC[C@H]3CCCN3C)nc3c2CCN(c2cc(O)cc4ccccc24)C3)[C@@H](C)C1")
"0.0001 to 1 µM"
>>> experimental_value("CO[C@@H]1C[C@H](COc2nc3c(c(N4CCN(C(=O)/C=C/CO)[C@@H](CC#N)C4)n2)CCN(c2cccc4cccc(C)c24)C3)N(C)C1")
"0.0001 to 1 µM"
>>> experimental_value("C=CC(=O)N1CCN(c2nc(OC[C@H]3CCC(C)(C)N3)nc3c2CCN(c2cc(O)cc4ccccc24)C3)CC1")
"> 1 µM"
>>> experimental_value("C=CC(=O)N1CCN(c2nc(OC[C@@H]3CCCN3C)nc3c2CCN(c2ccccc2C(F)F)C3)CC1CC#N (stereo partly drawn)")
"0.0001 to 1 µM"
>>> experimental_value("C=CC(=O)N1CCN(c2nc(N3CCOCC3)nc3c2CCN(c2cc(O)cc4ccccc24)C3)CC1")
"> 1 µM"
>>> experimental_value("C=CC(=O)N1CCN(c2nc(OC[C@H]3CN(C)CCO3)nc3c2CCN(c2cccc4cccc(Cl)c24)C3)C[C@@H]1CC#N")
"0.0001 to 1 µM"

QUERY: Reported IC50, molecule C=CC(=O)N1CC2(C1)CN(c1nc(OC(C)CN(C)C)nc3c1CCN(c1cc(O)cc4ccccc14)C3)C2 (stereo not drawn) : ____
RESULT: > 1 µM

QUERY: Please look up its IC50: `C=CC(=O)N1CCN(c2nc(O[C@H](C)CN(C)C)nc3c2CCN(c2cc(O)cc(OC(F)(F)F)c2)C3)CC1`
RESULT: > 1 µM

QUERY: Need IC50, item C=CC(=O)N1CCN(c2nc(OC[C@@H]3CCCN3C)nc3c2CCN(c2cccc(C)c2C)C3)CC1CC#N (stereo partly drawn)
RESULT: 0.0001 to 1 µM

QUERY: Reported IC50 for `C=CC(=O)N1CCN(c2nc(OC[C@@H]3CCCN3C)nc3c2CCN(c2cncc(Cl)c2C(F)(F)F)C3)C[C@@H]1CC#N` : what is it?
RESULT: 0.0001 to 1 µM

QUERY: Using the record for `C=C(F)C(=O)N1CCN(c2nc(OC[C@@H]3CC(C)(C)CN3C)nc3c2CCN(c2cccc4cccc(C)c24)C3)C[C@@H]1CC#N` , report its IC50.
RESULT: 0.0001 to 1 µM

QUERY: What IC50 value was documented for this molecule, `C=CC(=O)N1CCN(c2nc(O[C@H](C)[C@H]3CCCN3C)nc3c2CCN(c2cc(O)cc4ccccc24)C3)C[C@@H]1CC#N` ?
RESULT: 0.0001 to 1 µM

QUERY: Give the measured IC50 of C=CC(=O)N1C[C@H]2CC[C@@H](C1)N2c1nc(OC(C)CN(C)C)nc2c1CCN(c1cc(O)cc3ccccc13)C2 (stereo partly drawn) .
RESULT: > 1 µM

QUERY: Bench note: what IC50 did `C=CC(=O)N1CCN(c2nc(O[C@H](C)CN(C)C)nc3c2CCN(c2cc(O)ccc2OC)C3)CC1` show?
RESULT: > 1 µM

* * *

biological target: KRas G12C (Homo sapiens, UniProt P01116, G12C); assay: Cellular inhibition of KRas G12C measured by Phospho-ERK in NCI-H358 cells; type: cell-based; settings: pERK(Thr202/Tyr204) normalized with GAPDH, NCI-H358 cells, 3 hours; read-out: IC50
pIC50: −log10 of the molar value.
# pIC50 per record follows

Take a look at these entries with their results.
>>> experimental_value("C=CC(=O)N1CCN(c2nc(OC[C@@H]3CCCN3C)nc3c2CCN(c2ccc(F)c(C)c2C)C3)C[C@@H]1CC#N")
"6.00 to 10.00"
>>> experimental_value("C=C(F)C(=O)N1CCN(c2nc(OC[C@@H]3C[C@@H](OC)CN3C)nc3c2CCN(c2cccc4cccc(Cl)c24)C3)C[C@@H]1CC#N")
"6.00 to 10.00"
>>> experimental_value("C=CC(=O)N1CCN(c2nc(O[C@H](C)CN(C)C)nc3c2CCN(c2c(C)ccc4[nH]ncc24)C3)CC1CC#N (stereo partly drawn)")
"6.00 to 10.00"

QUERY: Sample `C=CC(=O)N1CCN(c2nc(O[C@H](C)CN3CCN(C(C)=O)CC3)nc3c2CCN(c2cc(O)cc4ccccc24)C3)CC1` — what was its pIC50?
RESULT: < 6.00

QUERY: Which measured pIC50 value corresponds to C=CC(=O)N1CCN(c2nc(OC[C@@H]3CCCN3C)nc3c2CCN(c2cccc4ccccc24)C3)CC1COC (stereo partly drawn) [Example 429] ?
RESULT: < 6.00

QUERY: Any idea what its pIC50 is? The compound is C=CC(=O)N1CCN(c2nc(OC[C@H](O)CN3CCOCC3)nc3c2CCN(c2cc(O)cc4ccccc24)C3)CC1 (single isomer, unassigned)
RESULT: < 6.00
